Ref: ChEMBL document CHEMBL1201862

Tested on: HOP-62
TEST SUMMARY: NCI tumour cell line growth inhibition, 48 h
Activity calls are given as the source filed them. Cut-off read from the data, not from the text of the source: active = GI50 up to about 1.1 µM and inactive = higher.
MEASUREMENT LABEL: GI50

>>> df
                                   molecule      endpoint_result
0    CC1SCc2nc3ccccc3n21 (stereo not given)  > 100 µM (inactive)
1  CCN(CC)CC/N=c1\c2cc(OC)ccc2[nH]c2c([N+](=O)[O-])ccc(NCCN(CC)CC)c12   1.18 µM (inactive)
2  O=C(/C=C/c1csc(-c2ccccc2)n1)NCc1ccc(C(=O)NCCc2ccccc2)cc1   2.64 µM (inactive)
3  C[C@@]12c3c4ccc(C=O)c3Oc3ccc(C=O)c(c31)Oc1c(C=O)ccc(c12)O4  > 100 µM (inactive)
4   O=c1c2ccccc2sc2c(CO)ccc(NCCN3CCCCC3)c12   3.24 µM (inactive)
5       O=S1(=O)c2ccccc2N(c2ccccc2)c2nnnn21     21 µM (inactive)
6  CC(C)NC(=O)OCc1c(COC(=O)NC(C)C)n(C)c2c1ccc1ccccc12   4.75 µM (inactive)
7               Nc1nc(Cl)cc(NCC2(O)CCCC2)n1  > 100 µM (inactive)
8  CC(=O)C1=C(C)N2C(=NC3=C(CCc4ccccc43)C2c2ccc(F)cc2)S1 (stereo not given)   84.1 µM (inactive)
9  C=CCN1C(=O)/C(=C\c2cc(C(C)(C)C)c(O)c(C(C)(C)C)c2)NC1=S   20.9 µM (inactive)
